# assayRemarks: Cellular Toxicity (caspase-3) Jurkat (AID 655);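 also: cells exposed to compound for 16 h at 37 °C before reading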
# setupConditions: Jurkat caspase-3 activation, luminescence; at 92.2 µM (top of the series), DMSO = 0%, tamoxifen = 100%
Records with an inconclusive call do not appear.
recordedMetric: caspase-3 activation (%)
Value expressed in %; do not type the unit.

Challenge: I am curious: what caspase-3 activation value has been reported for N#CCc1ccccc1[N+](=O)[O-] ?
Response given: 1.28

Challenge: I am curious: what caspase-3 activation value has been reported for CCCCC(CC)CO (centres undefined) ?
Response given: 0.69

Challenge: I am curious: what caspase-3 activation value has been reported for CCCOCC(C)OCC(C)O (centres undefined) ?
Response given: -2.41

Challenge: I am curious: what caspase-3 activation value has been reported for C=CCCC ?
Response given: -0.379

Challenge: I am curious: what caspase-3 activation value has been reported for O=C(O)CCSSCCC(=O)O ?
Response given: 0.0924

Challenge: I am curious: what caspase-3 activation value has been reported for Nc1ccccc1S(=O)(=O)O ?
Response given: 1.01

Challenge: I am curious: what caspase-3 activation value has been reported for COC(=O)CCCC(=O)OC ?
Response given: 0.321

Challenge: I am curious: what caspase-3 activation value has been reported for C[C@@H]1CC2(OC[C@]3(C)O[C@H]23)O[C@H]2C[C@@]3(C)[C@@H]4CC[C@H]5C(C)(C)C(O[C@@H]6OC[C@@H](O)[C@H](O)[C@H]6O)CC[C@@]56C[C@@]46CC[C@]3(C)[C@@H]12 (some centres undefined) ?
Response given: 2.9

Challenge: I am curious: what caspase-3 activation value has been reported for CCCCC(CC)C(=O)O (centres undefined) ?
Response given: 1.13

Challenge: I am curious: what caspase-3 activation value has been reported for Cc1ccc(C(C)(C)C)cc1 ?
Response given: 1.39

Challenge: I am curious: what caspase-3 activation value has been reported for O=CNc1ccccc1 ?
Response given: 0.613

Challenge: I am curious: what caspase-3 activation value has been reported for O=C1CCC(=O)O1 ?
Response given: 1.09

Challenge: I am curious: what caspase-3 activation value has been reported for C=CCOC(=O)COCCC(C)C ?
Response given: -0.573

Challenge: I am curious: what caspase-3 activation value has been reported for CC(=O)c1cccc([N+](=O)[O-])c1 ?
Response given: -0.656
